From: PubChem BioAssay AID1159580

Catalogue of normalized growth readings, one per entry.
Assay: chemical genetic growth profiling, strain panel (AID 1159580);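 also: tested at 20 µM; growth read once vehicle control cultures reached saturation at 30 °C; 1 = growth at the plate median or of vehicle wells; lower values mean less growth of the strain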
Conditions: S. cerevisiae deletion strains, growth OD, locus YJR066W, strain TOR1 (second series), stronger effect = lower value
About 2,000 (36%) of roughly 5,500 compounds were called active. Another 18% or so got no clear call; they are omitted. Some of the results follow.
Reply with just the number.

Consider the reported normalized growth for these molecules:
CC1(C)CC(=O)C=C(Sc2nc3ccccc3o2)C1
0.875
O=C(Nc1cccc(C(F)(F)F)c1)c1cncc(C#Cc2ccccc2)c1
0.905

Memo: `CCCN(CCC)C(=S)NC(=O)c1cccc([N+](=O)[O-])c1` , reported normalized growth: 0.898
